From: paper PMC11325555

biological target: Atlantic cod estrogen receptor alpha (gmEra) LBD (Gadus morhua, UniProt U5ILH7); assay: Luciferase reporter gene assay, gmEra antagonism (antiestrogenic activity), coexposure with 3 nM EE2
OUTCOME MEASURE: IC50 (nM)

> print(dat)
                        smiles.entry  outcome.measure  recorded.value
1  Oc1ccc(C(=C(Cl)Cl)c2ccc(O)cc2)cc1             IC50              60

###

Below: a set of entries, each annotated with reported pEC50.
Target: Atlantic cod estrogen receptor alpha (gmEra) LBD (Gadus morhua, UniProt U5ILH7)
Sequence (U5ILH7 170-455): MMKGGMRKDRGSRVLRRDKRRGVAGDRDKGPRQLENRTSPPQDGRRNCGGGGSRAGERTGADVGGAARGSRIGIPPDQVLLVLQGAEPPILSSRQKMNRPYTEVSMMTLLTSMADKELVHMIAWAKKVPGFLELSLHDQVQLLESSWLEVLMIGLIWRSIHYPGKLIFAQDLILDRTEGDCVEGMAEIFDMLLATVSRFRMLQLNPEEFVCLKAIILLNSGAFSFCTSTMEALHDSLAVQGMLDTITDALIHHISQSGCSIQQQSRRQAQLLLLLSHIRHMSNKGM
Assay: Luciferase reporter gene assay, gmEra agonism (estrogenic activity) in transfected COS-7 cells
Conditions: gmEra EC50, four-parameter logistic fit; 24 h exposure
pEC50: −log10 of the molar value.
OUTCOME MEASURE: pEC50

> print(dat)
                                   compound  recorded.value
1  C#C[C@]1(O)CC[C@H]2[C@@H]3CCc4cc(O)ccc4[C@H]3CC[C@@]21C [EE2, 17α-Ethynylestradiol, reference compound]            8.15
2            CCC(C)(c1ccc(O)cc1)c1ccc(O)cc1            5.80
3                   Oc1ccc(Cc2ccc(O)cc2)cc1            5.42
4  Oc1ccc(C(c2ccc(O)cc2)(C(F)(F)F)C(F)(F)F)cc1            6.64
5         Oc1ccc(C(=C(Cl)Cl)c2ccc(O)cc2)cc1            6.70
6             CC(C)(c1ccc(O)cc1)c1ccc(O)cc1            5.72
7                CC(c1ccc(O)cc1)c1ccc(O)cc1            4.93
8           O=S(=O)(c1ccc(O)cc1)c1ccc(O)cc1            4.08
